# ASSAY_METHOD_TEXT: chemical genetic growth profiling, strain panel (AID 1159580);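 further: tested at 20 µM; growth read once vehicle control cultures reached saturation at 30 °C; 1 = growth at the plate median or of vehicle wells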
# CONDITION_LABEL: S. cerevisiae deletion strains, growth OD, locus YHR027C, strain rpn1, stronger effect = lower value
In all, about 5,500 compounds went through this assay and about 2,000 (36%) were called active. Inconclusive results (about 18%) are left out. This is one part of the list.
Mark 1 only when normalized growth stays strictly below 1. Values equal to the cut-off are -1.

Field: below-cutoff. Rule: recorded normalized growth strictly less than 1. Subject: O=C1OC(=O)C2C3CCC(O3)C12 (configuration not stated)
-1

--- query ---
Field: below-cutoff. Rule: recorded normalized growth strictly less than 1. Subject: Cc1ncc([N+](=O)[O-])n1CCO
1

---

# ASSAY_METHOD_TEXT: chemical genetic growth profiling, strain panel (AID 1159580);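 further: tested at 20 µM; growth read once vehicle control cultures reached saturation at 30 °C; 1 = growth at the plate median or of vehicle wells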
# CONDITION_LABEL: S. cerevisiae deletion strains, growth OD, locus YBL061C, strain skt5, stronger effect = lower value
Out of some 5,500 compounds screened, about 2,000 (36%) were called active. Roughly 18% stayed inconclusive and do not appear here. Some of the results follow.
QUANTITY: normalized growth
Could you keep your reply to the number by itself?

// below: answered molecules
# query: normalized growth of entry CCCC(=O)Nc1ncnc2c1ncn2C1O[C@@H]2COP(=O)(O)O[C@H]2[C@H]1OC(=O)CCC (some centres not stated)
0.97

# query: normalized growth of entry CC(C)=CCC1=C(O)c2ccccc2C(=O)C1=O
0.774

# query: normalized growth of entry Cc1cc(C)nc(NS(=O)(=O)c2ccc(N)cc2)n1
0.985

# query: normalized growth of entry CCOC(=O)C1=C(C)NC(C)=C(C(=O)OC)C1c1cccc([N+](=O)[O-])c1 (configuration not stated)
1

# query: normalized growth of entry COP(=S)(OC)SCn1nnc2ccccc2c1=O
1.01

Next, consider the following molecule.
# query: normalized growth of entry CC(=O)N[C@@H](CC(=O)O)C(=O)O
1.01

---

# ASSAY_METHOD_TEXT: chemical genetic growth profiling, strain panel (AID 1159580);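 further: tested at 20 µM; growth read once vehicle control cultures reached saturation at 30 °C; 1 = growth at the plate median or of vehicle wells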
# CONDITION_LABEL: S. cerevisiae deletion strains, growth OD, locus YOR184W, strain ser1, stronger effect = lower value
The whole screen tested about 5,500 compounds, of which about 2,000 (36%) were called active. About 18% were inconclusive and are not listed. Some of the results follow.
QUANTITY: normalized growth
Could you keep your reply to the number by itself?

// below: answered compounds
# query: normalized growth of entry Cn1c([N+](=O)[O-])cnc1COC(N)=O
1.01

# query: normalized growth of entry COC(=O)C[C@H]1C(C)(C)C(OC(C)=O)[C@]2(O)C=C3C4CC(=O)O[C@@H](c5ccoc5)[C@]4(C)CCC3[C@@]1(C)C2=O (stereo partly specified)
0.999

# query: normalized growth of entry C[C@H]1C(=O)O[C@@H]2CCN3CC=C(COC(=O)[C@](C)(O)[C@]1(C)O)[C@H]23
1.02

# query: normalized growth of entry CN1Cc2c(N)cccc2C(c2ccccc2)C1 (stereo unspecified)
1.01

# query: normalized growth of entry COC(=O)C1=CO[C@@H](O[C@@H]2O[C@H](CO)[C@@H](O)[C@H](O)[C@H]2O)[C@@H]2[C@@H](C)[C@@H](O)C[C@H]12
1

***
# query: normalized growth of entry CC(=O)OC1CCC23C(=O)OC45CCC(C6=CC(=O)OC6)C4(C)CCC2C5CCC3(O)C1 (stereo unspecified)
1.02
